test system: UACC-62 melanoma; assay: NCI-60 one-dose screen, 48 h (100 = growth as untreated, 0 = no growth, -100 = all killed); settings: 10 µM unless noted
Compounds without any hit were thinned out: in the full panel of roughly 83,000, 20% have a hit.
Mark T only for growth values smaller than 30%; exact matches and larger values are F.

Compound	Group
Nc1nc(NC(=O)Nc2ccc(C(=O)O)cc2)nn1-c1ccc(S(N)(=O)=O)cc1	F
COc1ccc(CCN(CC(=O)N(CC(N)=O)C2CCC[C@@H]2OCc2ccccc2)C(=O)CN(C(=O)CN(CCc2ccc(Cl)cc2)C(=O)CN(C(=O)CN(C)Cc2ccccc2F)[C@H](C)C2CCCCC2)[C@H](C)C2CCCCC2)cc1OC (stereo not given in full)	F
CCOC(=O)C1=C(C)/C(=C\c2[nH]c(C)c(C(=O)OCC)c2C)N=C1C	F
Cn1cc(-c2csc(-c3c[nH]c4ccc(F)cc34)n2)c2ccnc(Cl)c21	F
Cc1cc(Nc2ccc(C(=O)N3CCCC3)cc2)nc(NCCCNc2ccnc3cc(Cl)ccc23)n1	F
C=C1C(=O)O[C@H]2[C@H]1CC/C(COC(=O)NCc1ccc(Cn3c(=O)sn(-c4ccc(C#N)cc4)c3=O)cc1)=C\CC[C@@]1(C)O[C@@H]21	F
COc1ccc2c(c1)CCc1[nH]nc(-c3cc(OC)c(OC)c(OC)c3)c1-2	T
Cn1c(=O)c2[nH]c(SCC(=O)Nc3ccc(C(=O)/C=C/c4ccccc4Cl)cc3)nc2n(C)c1=O	F
CC(=O)O[C@H]1C[C@@H]2C(C)(C)C(=O)CC[C@@]2(C)c2ccc(C(C)C)cc21	F
COc1cc(-c2nc3cc(Cl)c(Cl)cc3[nH]2)ccc1OCC(=O)N=Nc1c(O)[nH]c2ccc(Cl)cc12	T
Cc1ccc(C(=O)Nc2cccc(C#Cc3cccc4[nH]nc(N)c34)c2)cc1C(F)(F)F	F
COc1ccc(C(=O)Cn2c(C(=O)c3ccc(OC)cc3)nc3ccccc32)cc1	T
COc1ccc(-c2nn(-c3ccccc3)cc2/C=C/C(=O)NNC(=O)Nc2ccc(C)cc2)cc1	F
O=P(O)(O)OCC1OC(n2cnc3c(NCc4ccco4)ncnc32)C(O)C1O (stereo not given)	F
COC(=O)c1ccc(NC(=O)Nc2ccc(C(=O)OC)cc2)cc1	F
Cc1ncc(C(=O)Nc2ccc(CN3CCN(C)CC3)c(C(F)(F)F)c2)cc1C#Cc1cnc(N)c2ncccc12	T
O=C(Nc1ccccc1O)c1ccc(CNC(=O)c2ccsc2Nc2ccnc(C(F)(F)F)c2)cc1	T
COc1ccc(-c2cc(-c3ccccc3)nc(N3CCN(CCNc4ccnc5cc(Cl)ccc45)CC3)n2)cc1	F
O=C(N/N=C\c1cccc([N+](=O)[O-])c1)N/N=C/c1cccc([N+](=O)[O-])c1	F
CCN(CC)CCN1C(=O)c2cccc3c(/C=C/CN4C(=O)c5cccc6cccc(c56)C4=O)ccc(c23)C1=O	F
CC1=CCC(OC(=O)C(C)(C)CC(O)(C(C)O)C(O)C2(C)C=CC(Cc3ccc(C(C)C)cc3)(C(C)C)CC2)(C(C)C)CC1 (stereo not given)	F
CSC1=Nc2c(c(C)c(-c3ccccc3)n2CCCC(=O)O)C2=NC(=O)C[C@H](C)N12	F
CNC(C)[C@H]1CCC2C3CC=C4C(=O)[C@@H](NC(=O)C=C(C)C)CC[C@]4(C)C3CC[C@@]21C (stereo not given in full)	T
Cc1ccc(-c2csc(N(C(=O)N3CCN(c4cc5c(cc4F)c(=O)c(C(=O)O)cn5C4CC4)CC3)c3ccccc3)n2)cc1	T
O=C(NC1CC(F)C1)c1cc2cccnc2n1-c1ccc(Cl)c(Cl)c1 (stereo not given)	F
CC(C)(C)n1cc(-c2ccnc(NCCCNS(=O)(=O)c3cccc4ccccc34)c2)c(-c2cccc(F)c2)n1	F
COc1ccc(/C=C/C(=O)c2ccc(NC(=O)CSc3nc4c([nH]3)c(=O)n(C)c(=O)n4C)cc2)cc1OC	F
COc1ccc(C(=O)/C=C/c2ccc(N3CCCCC3)cc2)cc1OC	F
c1ccc(CCNc2c3ccccc3nc3ccccc23)cc1	F
Cc1cccc(-c2nc(Nc3ccc4ncsc4c3)c3ccccc3n2)n1	F
O=C(Nc1ccc(Br)cc1)C1=NCCCCN1	F
CCN1C(=O)N(CC)C2Nn3c(s/c(=C\c4ccccc4Br)c3=O)=NC21 (stereo not given)	T
O=S(=O)(NCCNc1nccc(-c2c(-c3ccc(F)c(O)c3)nc3sccn23)n1)c1ccc(F)cc1	T
Cc1ccc(S(=O)(=O)OCCCOS(=O)(=O)c2ccc(C)cc2)cc1	F
C[C@]1(O)CC(=O)[C@]2(O)C3=C(C=C[C@]2(O)C1)C(=O)c1c(O)cccc1C3=O	T
